- Tested on: gentamicin entry into hair cells
- test.description: Gentamicin-conjugated Texas Red (GTTR) uptake imaging
- Type: in vivo, zebrafish (Danio rerio)
- reported.conditions: protective drug at optimal dose; 50 uM GTTR for 3 min
Counter-ions that a name gives are not always drawn.
experimental.readout: Uptake (whether gentamicin is able to enter cells in the presence of protective drug)

Please review the entries below; each comes with its answer.
Short answer please: Uptake (whether gentamicin is able to enter cells in the presence of protective drug), gentamicin entry into hair cells, entry Fc1ccc([C@@H]2CCNC[C@H]2COc2ccc3c(c2)OCO3)cc1 [Paroxetine HCl]
attenuate

Short answer please: Uptake (whether gentamicin is able to enter cells in the presence of protective drug), gentamicin entry into hair cells, entry CNCCC(Oc1ccc(C(F)(F)F)cc1)c1ccccc1 (centres unmarked) [Fluoxetine HCl]
no block

Short answer please: Uptake (whether gentamicin is able to enter cells in the presence of protective drug), gentamicin entry into hair cells, entry CSc1ccc2c(c1)C(N1CCN(C)CC1)Cc1ccccc1S2.O=C(O)/C=C\C(=O)O (centres unmarked) [Methiothepin maleate]
no block

Short answer please: Uptake (whether gentamicin is able to enter cells in the presence of protective drug), gentamicin entry into hair cells, entry CN(C)C(=O)C(CCN1CCC(O)(c2ccc(Cl)cc2)CC1)(c1ccccc1)c1ccccc1 [Loperamide]
no block

---
Short answer please: Uptake (whether gentamicin is able to enter cells in the presence of protective drug), gentamicin entry into hair cells, entry CC(COc1ccccc1)N(CCCl)Cc1ccccc1 (centres unmarked) [Phenoxybenzamine HCl]
attenuate
